assay: folding stability dG unfold from chymotrypsin proteolysis; higher = more stable
I'd be grateful if you could share measured folding stability dG unfold for these entries.
One number for each entry, in kcal/mol.

Worked set:
SAGGSAGGSAGGKKVILIRGLTPEEIEALAKELEELFPDLKVTIERLPGEEGTLLITVDSAGGSAGGSAGGS [r10_852_TrROS_Hall]	1.91
SAGGSAGGSAWKKFMLEFPDGRPFMIEIDPDEPGRVKIYPPGNGKEEEIPPDDLKDLKITASAGGSAGGSAG [r3_451_TrROS]	0.718
SAGGSAGGDNWYHITIFRMKIKEVEPRKDPDGEKEPQFNFKIKEVVTIPIPPNDPEKLKDALGASAGGSAGG [r6_738_TrROS]	1.84

# batch: return folding stability dG unfold for each of the 4 sequences below
1. SAGGSADTITIFFPGMPPEFAKEILEAILYEQGWKPKSVSTERHPEKGMHTIEVRFPNGRKITIMFSAGGSA [r15_958_TrROS]
2. SAGGKEVKIEIEEKDGKLVIKITVKTEEELKEEIKKLLEEEFGLEVEEVKVEKNKNGEVTIYVVIKKKSAGG [r13_158_TrROS_Hall]
3. SAGGSAGGMVIHEIEVESPDPEKAEEEAKARAEEIRKALEEEEGGIPGEVKFVPTPEEDPLLLLSAGGSAGG [r6_23_JUSTAS]
4. SAELLDALKKNGWTIRIPIKHPGNGETWPMPFRIEPDGDGWKISIPPPNGKPHPFKIEDIEIMPPEDLKSAG [r14_427_TrROS]

# output
3.1
2.64
0.834
0.406

----------
I'd be grateful if you could share measured folding stability dG unfold for these entries.
experiment: folding stability dG unfold from trypsin proteolysis; higher = more stable
Answers are plain numbers, in kcal/mol.

Worked set:
SAGMSITIESDTNAPPDLPDIGEEEKLALAEELKEKALADPRYPDEEVVIVRPFKTPGGARWTITVVVSAGG [r19_132_JUSTAS]	1.31
SAGGSAGGSPVFESPEQAKAFLDNVPADSTVLIAVKNPETGEWQLFVVKVPPKRPVGYPGDKDSAGGSAGGS [r12_393_TrMRF]	1.08
SAGMVKIEIEKKEDGEILITITAPSEEELKKLAEELAKELAKKLGIEEIEVKVEKLENGEYKVTIRIKKSAG [r5_772_TrROS_Hall]	2.99

# batch: return folding stability dG unfold for each of the 3 sequences below
1. SAETRTLTIRIPAKDLTPEQIRALLRALLPEDATITEVRIERDEDGYITVTIVVTNPDGSKQEIRLVFPSAG [r14_30_TrROS_Hall]
2. SMKKPIDLIKKLGYTLTSVTKLPNGTTLITFEHPDSTVTVTVNPDGNIKITTTNPKNGTTTTTTIPVNKLSA [r9_2_JUSTAS]
3. SAGGSAGGSMFKVIVESEDPEKALEEAKALIEKIEEEGIGEIKKFEFLIVPKDIPEYKKLKEKSAGGSAGGS [r12_551_TrMRF]

# output
2.53
1.95
-0.306

----------
experiment: folding stability dG unfold (combined trypsin and chymotrypsin); higher = more stable
readout_label: folding stability dG unfold

SAGGSAGGSAMVITKTTASVEEVKEEIKKEYPNANVKITKVSTSADGKTTYKIEIKIPKNNKSAGGSAGGSA [r18_464_JUSTAS]	2 kcal/mol
SAGGNPSASPVVTETELPDGSRVTTTTYPSGTTTRTVTDLVTGKKTLVTTTTTPGTGATTTTTTPVPPSAGG [r13_822_JUSTAS]	1.08 kcal/mol
SAMVKTKDGKELEITRKAKPDELTEEEIKALAEEEVKKLVPEDLEVEVEVEISREPDGTYVVSVPVKKKSAG [r14_389_JUSTAS]	< -1 kcal/mol

# batch: return folding stability dG unfold for each of the 3 sequences below
1. SAGGSAGGSAGGMAASVSPSVSYDPNTPVTNTKYTITTDGGVTPTTVVTPVVTPPPSPALSAGGSAGGSAGG [r7_413_JUSTAS]
2. SAGGSAGGLEIVLPREELEELIRRGEIDEVEIERSEDDLVRARPIIRPPPPLPPEVGALLRALASAGGSAGG [r6_278_TrMRF]
3. SAGGSAGGSKKKKKPKKKKYIVIKVDMSLEEVKKLISKLLGFEEGEKIEIVKVDPENKYIVIKSAGGSAGGS [r12_815_TrROS_Hall]

# output
1: 0.198 kcal/mol; 2: 1.56 kcal/mol; 3: 2.08 kcal/mol

----------
I'd be grateful if you could share measured folding stability dG unfold for these entries.
experiment: folding stability dG unfold from trypsin proteolysis; higher = more stable
Numbers only, in kcal/mol.

Worked set:
SMPPLGEETTLLETIELPEKLTVEIRRVTLPNGVPLIEVSKTDPSGNTTPIFRAPGNDPAALAAARAALASA [r9_1069_JUSTAS]	0.438
SAGGSMGSKKVGEIELEVEIGDEKVKVKVTLYETESPDDSVSLTLDVDVEHPNGKKISKELFEKLFSAGGSA [r2_363_TrMRF]	1.15

Please look at the following sequence next.
# input Respond only with folding stability dG unfold recorded for SAGGGDLEVELVEEREFTFPDGLRRRLLVVRFPDGFLAIPVYVRPPGGGWRLLARFVLRIGPPRPEEGSAGG [r13_494_TrMRF]
# output 3.22

----------
I'd be grateful if you could share measured folding stability dG unfold for these entries.
test: folding stability dG unfold (combined trypsin and chymotrypsin); higher = more stable
One number for each entry, in kcal/mol.

SAGGSAGMTITSATEVGTTTFNGGSITHYTLTTPSGKTITGEVDPATGTLTISFPETGLSITIPPKSAGGSA [r15_159_JUSTAS]	1

# batch: return folding stability dG unfold for each of the 4 sequences below
1. SAGGSAGGSASIEVEAEPAEIEKVAEEAPEDEEVLVRDPKTGRVYLVKPDEVVLLREVPALLSAGGSAGGSA [r18_246_JUSTAS]
2. SAKKTIVVPVEKLKELLDALKEAGYEVKVEYNKENPVVTVTITVKDKNGKELKIELVVDKKTGLVTIKLSAG [r14_169_TrROS_Hall]
3. SAGGSAGGMVKVLVNPDGGATFIFNKDGSTSTIPVPYTTLEDVKAAVEALAKEYGIEVEEIVPASAGGSAGG [r6_254_JUSTAS]
4. PNMKMEWIQIPPGDLNDPVKIEAPLPPGTQIMIWVHDNGNGEWRPIFTVNNDEITIKNLPDADHVWVWVIKS [r1_224_TrROS]

# output
1: -0.821; 2: 2.26; 3: 0.982; 4: 2.47

# batch: return folding stability dG unfold for each of the 5 sequences below
1. SAGNMTNEQLQERIKEAVREDGWPTYRIKMSGPDGKNMNFQVDFPEERRQKIQKELGWDITEVEPRRYSAGG [r19_50_TrROS]
2. SAGGSAGGSAGGMLVLIKTPKKPVLLSEEEVKSNPELLEKLKEEGFPIDGIEFLDKEKLSAGGSAGGSAGGS [r10_396_JUSTAS]
3. SAGGTSPVTIPVTFDDLPPDAVDEAKARAEELAEELRAQGHEVLSVTIEIEPGRVTVTLTVTFPGGAPLSAG [r5_515_JUSTAS]
4. SAGKVEIVVTYPDGSKAVIDSDNPLVFTITDPDGNSSTISGTGFDEALLKIVELLKEKTGKPVEKVEIKSAG [r5_119_TrMRF]
5. SAGGEAEVVEPEEKLEIVDKETGKKITVYKVKNKETGEEVVLVEIEKNGKKYTVLMTKDELEALLKKSAGGS [r16_603_TrROS_Hall]

# output
1. -0.578
2. -0.451
3. 1.3
4. 1.76
5. 2.98

# input Respond only with folding stability dG unfold recorded for SAGGSMKIVKIEKIDLAKLKPGDIIEVKLENGEIYRIRIEKNEDGKYTVYIYNKNGELVEEFEFDVSAGGSA [r2_323_TrROS_Hall]
# output 3.84

----------
assay: folding stability dG unfold from trypsin proteolysis; higher = more stable
Cut-off 1 kcal/mol on folding stability dG unfold, inclusive. At or above means class 1; below means class 0.

Examples with answers:
SWYIIRIEIKIRNPKDGKSFDIEIMIHAPVEEAKEIAKEIASMFPGMRVEVKITEVMPMPPMTPEQLEKMSA [r9_421_TrROS]	class 1
SAGGSAGGSAGMKTRTITVSVSPEESEEEVRERVEAELPPGSVVEVTRLPDGTVVVTVEESAGGSAGGSAGG [r17_20_JUSTAS]	class 0
SAGGSAGGVLRMVRRALKNGKNRPIVIYVPEPEQRNFIKWLKDEWPGIKIKVVPPDQMPPNQIISAGGSAGG [r6_87_TrROS]	class 1
SMTIELTVPSPEELLAALKALADAGIKGAKIRITVTNPDGEEQEIEVDSIEDLEALIESGPVTVRVEIEPSA [r9_589_TrROS_Hall]	class 1
SAGGIDLDDLPPGDIFIFIKIKMEPVKVDDPDGKEYNRMEIEIFIFRFDPPNGKIQFEPIPMEFYIRSAGGS [r8_486_TrROS]	class 1

We now examine a further sequence.
# input Can SAGGSAGGSAGMTISLSDLTKKGDIEKAKEEVEEIKKKNPEPKVEKVSVPPEKNEIYKLESAGGSAGGSAGG [r11_365_JUSTAS] be said to have folding stability dG unfold at or above 1 kcal/mol?
# output class 0
